# target.desc: Non-receptor tyrosine-protein kinase TYK2 (Homo sapiens);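 note: each value is a mean of the inhibition readings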
# run.parameters: at 0.1 µM
For each record, write down the corresponding inhibition.
State the answer as a number, implicitly in %.

inhibition of COc1cc(Nc2nccc(-c3cnn4ncccc34)n2)cc(OC)c1 on Non-receptor tyrosine-protein kinase TYK2 (Homo sapiens)?
4.29

inhibition of C[C@@H](Oc1cc(-n2cnc3ccc(OC[C@@H](O)CO)cc32)sc1C(N)=O)c1ccccc1Cl on Non-receptor tyrosine-protein kinase TYK2 (Homo sapiens)?
3.13

inhibition of CS(=O)(=O)CCNCc1nc(-c2ccc3ncnc(Nc4ccc(OCc5cccc(C(F)(F)F)c5)cc4)c3c2)cs1 on Non-receptor tyrosine-protein kinase TYK2 (Homo sapiens)?
-3.62

inhibition of NS(=O)(=O)c1cccc(Nc2cc(-c3ccc(F)cc3)n[nH]2)c1 on Non-receptor tyrosine-protein kinase TYK2 (Homo sapiens)?
-3.9

inhibition of O=C(Nc1ccc(Oc2ccc3[nH]c(NC(=O)c4ccco4)nc3c2)cc1)Nc1cc(C(F)(F)F)ccc1F on Non-receptor tyrosine-protein kinase TYK2 (Homo sapiens)?
1.41

Every entry's value here was drawn from ChEMBL document CHEMBL1961873.
